Biological target: IDH1^R132H homodimer enzyme (Homo sapiens, UniProt O75874, R132H)
Sequence (O75874 whole entry R132H): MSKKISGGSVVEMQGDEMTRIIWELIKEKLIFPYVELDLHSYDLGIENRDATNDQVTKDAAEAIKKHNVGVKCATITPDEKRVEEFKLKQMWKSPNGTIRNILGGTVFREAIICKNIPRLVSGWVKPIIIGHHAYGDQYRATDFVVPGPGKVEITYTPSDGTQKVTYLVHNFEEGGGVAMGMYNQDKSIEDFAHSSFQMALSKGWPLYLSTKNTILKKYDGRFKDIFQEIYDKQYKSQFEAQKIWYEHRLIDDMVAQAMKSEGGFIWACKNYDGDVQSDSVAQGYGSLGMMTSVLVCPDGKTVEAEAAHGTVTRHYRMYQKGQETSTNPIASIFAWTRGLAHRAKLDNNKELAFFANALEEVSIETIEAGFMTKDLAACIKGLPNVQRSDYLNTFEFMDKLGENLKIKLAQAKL
Assay: NADPH depletion assay, IDH1 R132H
READOUT: IC50 (nM)

[
  {
    "COMPOUND": "CC(C)[C@H](C)n1c(=O)ccc2cnc(N[C@@H](C)c3ccc(C4=CCN(C(=O)OC(C)(C)C)CC4)cn3)nc21 [cpd 193]",
    "ASSAYED TARGET": "IDH1^R132H homodimer enzyme (Homo sapiens, UniProt O75874, R132H)",
    "UNIT STRING": "nM",
    "IC50": 126
  },
  {
    "COMPOUND": "C=CC(=O)N1CCN(C(CC)c2ccc(C3(Nc4ncc5ccc(=O)n(C(C)C)c5n4)CC3)cc2)CC1 (stereo not drawn) [cpd 247]",
    "ASSAYED TARGET": "IDH1^R132H homodimer enzyme (Homo sapiens, UniProt O75874, R132H)",
    "UNIT STRING": "nM",
    "IC50": 5
  },
  {
    "COMPOUND": "C[C@H](Nc1ncc2ccc(=O)n(Cc3ccc(O)cc3)c2n1)c1ccc(Cl)cc1 [cpd 72]",
    "ASSAYED TARGET": "IDH1^R132H homodimer enzyme (Homo sapiens, UniProt O75874, R132H)",
    "UNIT STRING": "nM",
    "IC50": 2590
  },
  {
    "COMPOUND": "C[C@H](Nc1ncc2ccc(=O)n(Cc3cccc(C(F)(F)F)c3)c2n1)c1ccc(Cl)cc1 [cpd 24]",
    "ASSAYED TARGET": "IDH1^R132H homodimer enzyme (Homo sapiens, UniProt O75874, R132H)",
    "UNIT STRING": "nM",
    "IC50": 3530
  },
  {
    "COMPOUND": "C=C(C)C(=O)N1CCN(Cc2ccc([C@H](C)Nc3ncc4ccc(=O)n([C@@H](C)C(C)C)c4n3)cc2)CC1 [cpd 162]",
    "ASSAYED TARGET": "IDH1^R132H homodimer enzyme (Homo sapiens, UniProt O75874, R132H)",
    "UNIT STRING": "nM",
    "IC50": 84
  },
  {
    "COMPOUND": "C=CC(=O)N1CCN(Cc2ccc([C@H](C)Nc3nc(N)c4ccc(=O)n(C(C)C)c4n3)cc2)CC1 [cpd 206]",
    "ASSAYED TARGET": "IDH1^R132H homodimer enzyme (Homo sapiens, UniProt O75874, R132H)",
    "UNIT STRING": "nM",
    "IC50": 13
  },
  {
    "COMPOUND": "C=CC(=O)N1CCN([C@H](CC2CC2)c2ccc([C@H](C)Nc3ncc4ccc(=O)n(C(C)C)c4n3)cc2)CC1 [cpd 231]",
    "ASSAYED TARGET": "IDH1^R132H homodimer enzyme (Homo sapiens, UniProt O75874, R132H)",
    "UNIT STRING": "nM",
    "IC50": 1
  },
  {
    "COMPOUND": "C[C@H](Nc1ncc2ccc(=O)n(Cc3ccc(F)cc3C(F)(F)F)c2n1)c1ccc(CN2CCC(F)(F)CC2)cc1 [cpd 115]",
    "ASSAYED TARGET": "IDH1^R132H homodimer enzyme (Homo sapiens, UniProt O75874, R132H)",
    "UNIT STRING": "nM",
    "IC50": 672
  }
]

1: C=CC(=O)N1CCN(Cc2ccc([C@H](C)Nc3ncc4ccc(=O)n(CC(C)(C)C)c4n3)cc2F)CC1 [cpd 141]
2: C=CC(=O)N1CCN(C(CC)c2ccc([C@@H](C)Nc3ncc4ccc(=O)n(C(C)C)c4n3)cc2)CC1 (stereo in doubt) [cpd 229]
Prompt line: Compare IC50: is it lower for 1 or for 2 ? Identify your pick by its label.
Response line: 1
(1: 38 nM, 2: 83 nM)
